Please go through the items and note down their Efficacy (GABA) %.
Molecular target: h-GABA-A α5β3γ2 (Homo sapiens, UniProt P18507+P31644)
Assay: Two-electrode voltage clamp electrophysiology in Xenopus laevis oocytes expressing GABAA receptors, modulation of GABA EC20 current
Format: cell-based
Design: host or cells: Xenopus laevis oocytes micro-injected with RNA transcripts of the subunits
Conditions: % modulation of GABA EC20 = 100*(Fold increase-1); Table 1
Supply the numeric figure in %, leaving out any unit text.

[Q] So what's the measured Efficacy (GABA) % for this one? Cc1ccc(-c2noc(C)c2Cn2ncc(NCC3CCOCC3)cc2=O)cn1
[A] 103

[Q] Suppose we examine the compound Cc1ccc(-c2noc(C)c2Cn2ncc(N3CC4(CCCCCO4)C3)cc2=O)nn1 ; what Efficacy (GABA) % value has been reported?
[A] 100

[Q] Entry COc1ncc(-c2cnn(Cc3c(-c4ccc(C)nc4)noc3C)c(=O)c2)cc1F has what Efficacy (GABA) %?
[A] 137

[Q] Item under review: Cc1ccc(-c2noc(C)c2Cn2ncc(N3CC4(CC(C)CCO4)C3)cc2=O)nn1 (single isomer, unassigned) [Example 317] . Reported Efficacy (GABA) %?
[A] 68

[Q] // returns reported Efficacy (GABA) % for input Cc1onc(-c2ccc(Cl)nc2)c1Cn1ncc(N2CC3(CCCO3)C2)cc1=O
[A] 94

[Q] # input compound: Cc1onc(-c2ccc(Cl)cn2)c1Cn1ncc(N2CC3(CCCO3)C2)cc1=O ; wanted: its Efficacy (GABA) %
[A] 20

[Q] Looking for the measured Efficacy (GABA) % of Cc1ccc(-c2noc(C)c2Cn2ncc(N3CC[C@@H](OC(C)(C)C)C3)cc2=O)cn1 , can you help?
[A] 109

[Q] Which Efficacy (GABA) % value belongs to Cc1onc(-c2ccc(Cl)nc2)c1Cn1ncc(N2CCN(c3cccnc3)CC2)cc1=O ?
[A] 108

====

Target: h-GABA-A α5β3γ2 (Homo sapiens, UniProt P18507+P31644)
Assay: [3H]flumazenil competition binding assay, membranes of HEK293 cells expressing GABAA receptors
Settings: displacement of [3H]-Flumazenil 0.5 nM, HEK293 cells expressing human receptors, mean of two determinations; Table 1
measure: pKi
Remember the convention: pKi equals -log10 of concentration in molar.

[Q] What pKi value was documented for this molecule, COc1ccc(-c2cnn(Cc3c(-c4ccc(C)nc4)noc3C)c(=O)c2)cc1F [Example 80] ?
[A] 8.07

[Q] What value of pKi has been recorded for this entry: Cc1ccc(-c2noc(C)c2Cn2ncc(N3CC(OC4(C)CC4)C3)cc2=O)nn1 [Example 305]
[A] 8.60

[Q] Recorded pKi of CCCn1cc(-c2cnn(Cc3c(-c4ccc(C)nc4)noc3C)c(=O)c2)cn1 [Example 210] , please.
[A] 7.59

[Q] Sample Cc1cc(-c2noc(C)c2Cn2ncc(N3CC4(C3)CN(C3CC3)C4)cc2=O)no1 [Example 87] — what was its pKi?
[A] 7.41

[Q] Need pKi, item Cc1onc(-c2ccc(Cl)nc2)c1Cn1ncc(N2CCC3(CCCCO3)CC2)cc1=O [Example 333]
[A] 7.38

[Q] Form field: reported pKi of Cc1ccc(-c2noc(C)c2Cn2ncc(N3CC(OCC4CC4)C3)cc2=O)cn1 [Example 111]
[A] 7.46

[Q] So what does the record say about pKi for Cc1ccc(-c2noc(C)c2Cn2ncc(N3CCC4(CCCCO4)CC3)cc2=O)nn1 [Example 302] ?
[A] 8.70

[Q] Entry under review: CCc1onc(-c2ccc(C)nn2)c1Cn1ncc(N2CC3(CCC(F)CO3)C2)cc1=O (single isomer, unassigned) [Example 325] . Reported pKi?
[A] 8.49

[Q] What pKi value was documented for this molecule, Cc1ccc(-c2noc(C)c2Cn2ncc(N3CC4(CC(C(F)(F)F)CCO4)C3)cc2=O)nn1 (single isomer, unassigned) [Example 312] ?
[A] 8.19

[Q] Look at this molecule and give its reported pKi. Cc1onc(-c2ccc(Cl)nc2)c1Cn1ncc(-c2cnn(C)c2)cc1=O [Example 215]
[A] 7.30

[Q] Which value of pKi has been reported for Cc1ccc(-c2noc(CF)c2Cn2ncc(N3CC4(CCCO4)C3)cc2=O)nn1 [Example 295] in the records?
[A] 7.80

[Q] Find the recorded pKi belonging to Cc1onc(-c2ccc(Cl)nc2)c1Cn1ncc(N2CC3(CCC(C(F)(F)F)CO3)C2)cc1=O (single isomer, unassigned) [Example 323] and report it.
[A] 7.37

[Q] Given the molecule Cc1ccc(-c2noc(C)c2Cn2ncc(N3CC4(C[C@@H](F)CO4)C3)cc2=O)cn1 [Example 200] , what is its reported pKi?
[A] 7.73

[Q] Returns the measured pKi for the input molecule. Input: CCO[C@@H]1CN(c2cnn(Cc3c(-c4ccc(Cl)nc4)noc3C)c(=O)c2)[C@@H]1C [Example 294]
[A] 7.38

[Q] I have this molecule here, Cc1nonc1N1CCN(c2cnn(Cc3c(-c4ccc(Cl)nc4)noc3C)c(=O)c2)CC1 [Example 280] , and I need its recorded pKi.
[A] 8.12

[Q] Look up pKi: COC1CN(c2cnn(Cc3c(-c4ccc(Cl)nn4)noc3C)c(=O)c2)C1 [Example 252]
[A] 8.38
